# EXPERIMENT_DESCRIPTION: physchem
# TEST_CONTEXT: octanol/water
# Description: Lipophilicity, log P of the compound
METRIC: logP

COC[C@@H](c1ccc(C(F)(F)F)cc1)N1CCN(C2(C)CCN(C(=O)c3c(C)ncnc3C)CC2)C[C@@H]1C: 3.6
CC1(C)CN(CC/C=C2/c3cc(C(=O)O)ccc3OCc3ncccc32)C[C@H](c2ccc(Cl)cc2)[C@H]1O: 5.1
CCN(C(=O)Cc1ccc(S(C)(=O)=O)cc1)C1CCN(CC[C@@H](c2cc(F)cc(F)c2)C2CCC(S(C)(=O)=O)CC2)CC1 (some centres not stated): 3.1
CCCCN1C(=O)[C@@H]([C@H](O)C2CCCCC2)NC(=O)C12CCN(Cc1ccc(Oc3ccc(C(=O)O)cc3)cc1)CC2: 3.8

(I) O=C(Nc1ccc(Cl)c(S(=O)(=O)N2CCNCC2)c1O)Nc1cccc(F)c1Cl
(II) CC[C@@H](Nc1c(Nc2cccc(C(=O)N(C)C)c2O)c(=O)c1=O)c1ccc(C)o1 [NAVARIXIN ANHYDROUS]
(III) Cc1nnc(C(=O)NC(C)(C)c2nc(C(=O)NCc3ccc(F)cc3)c(O)c(=O)n2C)o1
Query: Descending sort on logP required. Field: ranking. Enter the labels in the order requested.
Result: I, III, II
(I: 4.2, III: 2.4, II: 1)

###

# TEST_TARGET: Histamine H1 receptor (Homo sapiens, UniProt P35367)
# Sequence (P35367 whole entry): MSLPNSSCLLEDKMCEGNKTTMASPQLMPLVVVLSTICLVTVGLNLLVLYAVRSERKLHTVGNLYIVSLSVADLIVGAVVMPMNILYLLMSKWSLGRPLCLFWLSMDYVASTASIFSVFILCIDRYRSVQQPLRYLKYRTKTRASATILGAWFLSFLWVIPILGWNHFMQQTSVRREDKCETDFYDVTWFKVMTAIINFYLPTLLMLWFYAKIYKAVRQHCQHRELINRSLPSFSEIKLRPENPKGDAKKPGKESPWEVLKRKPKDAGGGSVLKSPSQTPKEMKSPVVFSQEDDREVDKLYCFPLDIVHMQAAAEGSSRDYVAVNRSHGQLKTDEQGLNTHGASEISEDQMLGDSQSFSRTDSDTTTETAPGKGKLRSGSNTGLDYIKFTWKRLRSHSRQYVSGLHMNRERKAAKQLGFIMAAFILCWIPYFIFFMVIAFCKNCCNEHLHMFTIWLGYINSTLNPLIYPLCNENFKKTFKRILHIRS
# EXPERIMENT_DESCRIPTION: Binding affinity to histamine H1 receptor
METRIC: pKi
// pKi here means minus log10 of the molar concentration (mol/L)

Query: Give Histamine H1 receptor (Homo sapiens, UniProt P35367) pKi for O=C(O)Cc1ccc2c(c1)/C(=C/CN1CCCC(Cc3ccccc3)C1)c1ccccc1CO2 (stereo unspecified)
Result: 7.70

###

# TEST_TARGET: C-C chemokine receptor type 1 (Homo sapiens)
# Sequence (P32246 whole entry): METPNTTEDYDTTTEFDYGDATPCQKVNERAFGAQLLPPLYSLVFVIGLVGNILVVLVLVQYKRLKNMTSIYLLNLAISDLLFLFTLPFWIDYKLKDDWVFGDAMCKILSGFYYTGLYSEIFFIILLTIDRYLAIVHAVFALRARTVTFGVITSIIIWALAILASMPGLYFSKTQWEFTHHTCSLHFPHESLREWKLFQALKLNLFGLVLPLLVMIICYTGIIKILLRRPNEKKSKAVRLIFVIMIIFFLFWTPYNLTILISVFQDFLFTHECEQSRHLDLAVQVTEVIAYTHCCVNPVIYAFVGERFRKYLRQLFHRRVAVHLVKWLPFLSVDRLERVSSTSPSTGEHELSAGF
# EXPERIMENT_DESCRIPTION: Antagonist activity at CCR1
METRIC: IC50 (nM)
// units = nM; emit number, no label

Query: Reported IC50, molecule CO[C@@H]1COCC[C@@H]1NC1CC[C@@](C(=O)N2CCc3ncc(C(F)(F)F)cc3C2)(C(C)C)C1 (stereo partly specified) : ____
Result: 5

###

# EXPERIMENT_DESCRIPTION: Oral bioavailability in dog
# Format: ADME, organism-based, Canis lupus familiaris
# TEST_CONTEXT: in vivo
METRIC: bioavailability (%)

NC(=O)c1ccc(CNC(=O)NC[C@@H]2CN(Cc3ccc(Cl)c(Cl)c3)CCO2)cc1: 89
CC1(C)CN(CC/C=C2/c3cc(C(=O)O)ccc3OCc3ncccc32)C[C@H](c2ccc(Cl)cc2)[C@H]1O: 100

###

# TEST_TARGET: C-C chemokine receptor type 3 (Homo sapiens, UniProt P51677)
# Sequence (P51677 whole entry): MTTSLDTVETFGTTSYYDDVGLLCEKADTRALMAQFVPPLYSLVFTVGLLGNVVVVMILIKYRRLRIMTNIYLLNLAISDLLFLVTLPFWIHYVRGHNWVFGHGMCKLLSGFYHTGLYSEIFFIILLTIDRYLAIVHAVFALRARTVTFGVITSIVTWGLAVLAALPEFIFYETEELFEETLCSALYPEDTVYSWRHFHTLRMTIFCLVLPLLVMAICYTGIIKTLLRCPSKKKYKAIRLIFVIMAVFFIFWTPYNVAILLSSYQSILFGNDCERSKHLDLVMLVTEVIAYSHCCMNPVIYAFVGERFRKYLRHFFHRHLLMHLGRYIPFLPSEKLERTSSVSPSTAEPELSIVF
# EXPERIMENT_DESCRIPTION: Antagonist activity at human CCR3 assessed as inhibition of CCL11-induced calcium influx by cell based assay
METRIC: Ki (nM)
Report as a plain number; the unit nM is understood.

Query: // Ki lookup, key: Cc1ccc(C(=O)N2CCC(=CC(=O)N[C@@H]3CCN(Cc4ccc5cc(F)ccc5c4)C3)CC2)nn1
Result: 1.8

###

# TEST_TARGET: Histamine H1 receptor (Homo sapiens)
# EXPERIMENT_DESCRIPTION: Antagonist activity at histamine H1 receptor expressed in human PC3 cells inhibition of histamine-induced calcium influx by cell based assay
# Assay type: functional, PC-3
METRIC: pKi
Keep it numeric: pKi is minus log10 of the concentration in mol/L.

Query: # query: pKi | item Cc1ccc(C(=O)N2CCC(=CC(=O)N[C@@H]3CCN(Cc4ccc5cc(F)ccc5c4)C3)CC2)nn1 | system: Histamine H1 receptor (Homo sapiens)
Result: 7.33
